Values compiled from patent US9024041B2.

- measured.target: p38 MAPKα isoform (MAPK14: Invitrogen) (Homo sapiens)
- Sequence (Q16539 whole entry, canonical isoform): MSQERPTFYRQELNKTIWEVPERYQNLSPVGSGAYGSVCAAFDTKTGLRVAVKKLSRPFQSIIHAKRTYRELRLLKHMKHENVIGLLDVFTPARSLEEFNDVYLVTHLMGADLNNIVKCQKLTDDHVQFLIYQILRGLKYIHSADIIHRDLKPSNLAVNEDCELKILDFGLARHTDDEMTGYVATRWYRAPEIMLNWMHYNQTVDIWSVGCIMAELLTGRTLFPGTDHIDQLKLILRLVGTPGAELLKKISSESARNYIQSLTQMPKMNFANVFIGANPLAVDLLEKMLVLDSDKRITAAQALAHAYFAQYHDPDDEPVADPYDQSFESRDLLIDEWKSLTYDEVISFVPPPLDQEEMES
- assay.notes: p38 MAPKα enzyme inhibition assay (FRET, Z-LYTE, via MAPKAP-K2 activation)
- condition.description: 2 hr pre-incubation, ATP 10.0 μM; read-out: Enzyme Inhibition IC50 p38α
pIC50: −log10 of the molar value.
experimental.readout: pIC50

- smiles.string: "CC(C)(C)c1cc(NC(=O)Nc2ccc(Oc3ccnc(NC(=O)N4CCOCC4)c3)c3ccccc23)n(-c2ccc(S(C)(=O)=O)cc2)n1"
  measured.target: "p38 MAPKα isoform (MAPK14: Invitrogen) (Homo sapiens)"
  pIC50: 8.28

I: COCC(=O)Nc1cc(Oc2ccc(NC(=O)Nc3cc(C(F)(F)C(F)(F)F)nn3-c3ccc(C)cc3)c3ccccc23)ccn1
II: COCC(=O)Nc1cc(Oc2ccc(NC(=O)Nc3cc(C(C)(C)C)nn3-c3ccc(OC)nc3)c3ccccc23)ccn1
Q. // task: argmin of pIC50 over [ I , II ] Please indicate the selected item by its label.
A. I
(I: 8.00, II: 8.35)

* * *

Each record here notes measured MTT Assay (Viability) 24 h d-U937.
- System: Differentiated U937 cells
- assay.notes: MTT assay: cell viability on exposure to test compounds
- Format: cell-based, human
- condition.description: percentage loss of cell viability vs vehicle; 1 μg/mL, 24 h, 10% FCS
# output: bare number, implied unit %

Here is how some compounds turned out for MTT Assay (Viability) 24 h d-U937.
- compound: "COCC(=O)Nc1cc(Oc2ccc(NC(=O)Nc3cc(C(C)(C)C)nn3-c3ccc(C)nc3)c3ccccc23)ccn1 [Example 57]"
  MTT Assay (Viability) 24 h d-U937 [%]: 76.0
- compound: "COc1ccc(-n2nc(C(C)(C)C)cc2NC(=O)Nc2ccc(Oc3ccnc(NC(=O)N4CCOCC4)c3)c3ccccc23)cc1 [Example 9]"
  MTT Assay (Viability) 24 h d-U937 [%]: 18.6
- compound: "COCC(=O)Nc1cc(Oc2ccc(NC(=O)Nc3cc(C(C)(C)C)nn3-c3ccc(OC)nc3)c3ccccc23)ccn1 [Example 16]"
  MTT Assay (Viability) 24 h d-U937 [%]: "−6.2"

Now let's try a different one.
The reported MTT Assay (Viability) 24 h d-U937 of the compound COCC(=O)Nc1cc(Sc2ccc(NC(=O)Nc3cc(C(C)(C)C)nn3-c3ccc(C)cc3)c3ccccc23)ccn1 [Example 21] was 5.3

* * *

- Tested on: Differentiated U937 cells
- assay.notes: MTT assay: cell viability on exposure to test compounds
- Format: cell-based, human
- condition.description: percentage loss of cell viability vs vehicle; 10 μg/mL, 24 h, 10% FCS
Marks after values point to notes of the source that are not given here.
Collected MTT Assay (Viability) 24 h d-U937 values appear next to each entry.

Reference set (3 entries):
- smiles.string: "CCNC(=O)Nc1cc(C(=O)c2ccc(NC(=O)Nc3cc(C(C)(C)C)nn3-c3ccc(C)cc3)c3ccccc23)ccn1"
  MTT Assay (Viability) 24 h d-U937: "8.8^b %"
- smiles.string: "CCNC(=O)Nc1cc(Cc2ccc(NC(=O)Nc3cc(C(C)(C)C)nn3-c3ccc(C)cc3)c3ccccc23)ccn1"
  MTT Assay (Viability) 24 h d-U937: "−1.7^b %"
- smiles.string: "COCCOCC(=O)Nc1cc(Cc2ccc(NC(=O)Nc3cc(C(C)(C)C)nn3-c3ccc(C)cc3)c3ccccc23)ccn1"
  MTT Assay (Viability) 24 h d-U937: "55.9^b %"

Just so you know, measured MTT Assay (Viability) 24 h d-U937 for COCC(=O)Nc1cc(Cc2ccc(NC(=O)Nc3cc(C(C)(C)C)nn3-c3ccc(C)cc3)c3ccccc23)ccn1 came out at 61.6^b %

Short answer for COCC(=O)Nc1cc(C(=O)c2ccc(NC(=O)Nc3cc(C(C)(C)C)nn3-c3ccc(C)cc3)c3ccccc23)ccn1 : MTT Assay (Viability) 24 h d-U937 was 71.1^b %

// sample COCCOCC(=O)Nc1cc(C(=O)c2ccc(NC(=O)Nc3cc(C(C)(C)C)nn3-c3ccc(C)cc3)c3ccccc23)ccn1 , its MTT Assay (Viability) 24 h d-U937 was 80.8^b %

* * *

- Tested on: Differentiated U937 cells
- assay.notes: MTT assay: cell viability on exposure to test compounds
- Type: cell-based, human
- condition.description: percentage loss of cell viability vs vehicle; 1 μg/mL, 24 h, 10% FCS
Some molecules, each annotated with its measured MTT Assay (Viability) 24 h d-U937.
Kindly answer with a numeric value in %, unit omitted.

- smiles.string: "COCC(=O)Nc1cc(Oc2ccc(NC(=O)Nc3cc(C(C)(C)C)nn3-c3ccc(S(C)(=O)=O)cc3)c3ccccc23)ncn1"
  experimental.readout: "MTT Assay (Viability) 24 h d-U937"
  result: "−10.4"
- smiles.string: "COCC(=O)Nc1cc(Oc2ccc(NC(=O)Nc3cc(C(F)(F)C(F)(F)F)nn3-c3ccc(C)cc3)c3ccccc23)ccn1"
  experimental.readout: "MTT Assay (Viability) 24 h d-U937"
  result: "−46.1"
- smiles.string: "CC(C)(C)c1cc(NC(=O)Nc2ccc(Oc3ccnc(NC(N)=O)c3)c3ccccc23)n(-c2ccc(S(C)(=O)=O)cc2)n1"
  experimental.readout: "MTT Assay (Viability) 24 h d-U937"
  result: 13.9

Field: next molecule
Recorded result, COCC(=O)Nc1cc(Oc2ccc(NC(=O)Nc3cc(C(C)(C)C)nn3-c3ccc(O)cc3)c3ccccc23)ccn1 , MTT Assay (Viability) 24 h d-U937: −19.9

* * *

- Tested on: Differentiated U937 cells
- assay.notes: MTT assay: cell viability on exposure to test compounds
- Type: cell-based, human
- condition.description: percentage loss of cell viability vs vehicle; 1 μg/mL, 4 hr, 5% FCS
- Procedure: MTT Assay: Determination of Cell Viability on Exposure to Test Compounds Differentiated U937 cells were pre-incubated with each test compound under two protocols: the first for 4 hr in 5% FCS and the second in 10% FCS for 24 h. […] After incubation for 1 hr the media were removed, 200 μL of DMSO was added to each well and the plates were shaken lightly for 1 hr prior to reading the absorbance at 550 nm. […]
This listing pairs compounds with measured MTT Assay (Viability) 4 h d-U937.
Express your answer in %, writing the number without its unit.

Solved cases (3 shown):
- smiles.string: "COCC(=O)Nc1cc(Oc2ccc(NC(=O)Nc3cc(C(C)(C)C)nn3-c3cccc(OC)c3)c3ccccc23)ccn1"
  MTT Assay (Viability) 4 h d-U937 [%]: "−5.2"
- smiles.string: "COCC(=O)Nc1cc(Oc2ccc(NC(=O)Nc3cc(C(C)(C)C)nn3-c3ccc(CO)c(Cl)c3)c3ccccc23)ccn1"
  MTT Assay (Viability) 4 h d-U937 [%]: "−28.5"
- smiles.string: "COCC(=O)Nc1cc(Oc2ccc(NC(=O)Nc3cc(C(C)(C)C)nn3-c3ccc(CO)c(OC)c3)c3ccccc23)ccn1"
  MTT Assay (Viability) 4 h d-U937 [%]: "−5.2"

# ---- query compound ----
MTT Assay (Viability) 4 h d-U937 measured on CC(C)(C)c1cc(NC(=O)Nc2ccc(Oc3ccnc(NC(N)=O)c3)c3ccccc23)n(-c2ccc(S(C)(=O)=O)cc2)n1 = −14.4

* * *

Reported MTT Assay (Viability) 24 h d-U937 by item:
- Tested on: Differentiated U937 cells
- assay.notes: MTT assay: cell viability on exposure to test compounds
- Format: cell-based, human
- condition.description: percentage loss of cell viability vs vehicle; 1 μg/mL, 24 h, 10% FCS
Express your answer in %, writing the number without its unit.

- molecule: "COCC(=O)Nc1cc(Oc2ccc(NC(=O)Nc3cc(-c4ccccc4)nn3-c3ccccc3)c3ccccc23)ccn1 [Example 19]"
  unit.spec: "%"
  result: "−11.7"

Considering CN(C)C(=O)Nc1cc(Oc2ccc(NC(=O)Nc3cc(C(C)(C)C)nn3-c3ccc(O)cc3)c3ccccc23)ccn1 [Example 34] , its MTT Assay (Viability) 24 h d-U937 with Differentiated U937 cells was recorded as −43.4

Bench note, Differentiated U937 cells: CSc1ccc(-n2nc(C(C)(C)C)cc2NC(=O)Nc2ccc(Oc3ccnc(NC(=O)N4CCCC4)c3)c3ccccc23)cc1 [Example 14] , MTT Assay (Viability) 24 h d-U937 reads −50.0

Reading of MTT Assay (Viability) 24 h d-U937 for CNC(=O)Nc1cc(Oc2ccc(NC(=O)Nc3cc(C(C)(C)C)nn3-c3ccc(O)cc3)c3ccccc23)ccn1 [Example 33] with Differentiated U937 cells: −24.1

Test item COCC(=O)Nc1cc(Oc2ccc(NC(=O)Nc3cc(C(C)(C)C)nn3-c3ccc(CO)c(Cl)c3)c3ccccc23)ccn1 [Example 13] ; Differentiated U937 cells; reported MTT Assay (Viability) 24 h d-U937 was 27.0

MTT Assay (Viability) 24 h d-U937 of COc1ccc(-n2nc(C(C)(C)C)cc2NC(=O)Nc2ccc(Oc3ccnc(NC(=O)N4CCN(C)CC4)c3)c3ccccc23)cc1 [Example 10] , assay on Differentiated U937 cells, is −21.2

Measured MTT Assay (Viability) 24 h d-U937 (Differentiated U937 cells), entry COCC(=O)Nc1cc(Oc2ccc(NC(=O)Nc3cc(C(C)(C)C)nn3-c3ccc(OC)cc3)c3ccccc23)ccn1 [Example 3] : −51.5
